System: Enterococcus faecalis
Experiment: Antibacterial activity against vancomycin B-resistant Enterococcus faecalis SR-23630
Type: functional
Details: SR23630
metric: MIC (µg/mL)
One number for each entry, in µg/mL.

Write down MIC measured for item CN[C@H](CC(C)C)C(=O)N[C@H]1C(=O)N[C@@H](CC(N)=O)C(=O)N[C@H]2C(=O)N[C@H]3C(=O)N[C@H](C(=O)N[C@H](C(=O)O)c4cc(O)cc(O)c4-c4cc3ccc4O)[C@H](O)c3ccc(c(/C=C/c4ccc(OC)cc4)c3)Oc3cc2cc(c3O[C@@H]2O[C@H](CO)[C@@H](O)[C@H](O)[C@H]2O[C@H]2C[C@](C)(N)[C@H](O)[C@H](C)O2)Oc2ccc(cc2Cl)[C@H]1O
32

* * *

System: Enterococcus faecalis
Experiment: Antibacterial activity against vancomycin-susceptible Enterococcus faecalis SR1004
Type: functional
Assignment: determine reported MIC for the given compounds.
Answers are plain numbers, in mg/L.

Consider the worked cases shown below.
CN[C@H](CC(C)C)C(=O)N[C@H]1C(=O)N[C@@H](CC(N)=O)C(=O)N[C@H]2C(=O)N[C@H]3C(=O)N[C@H](C(=O)N[C@H](C(=O)O)c4cc(O)cc(O)c4-c4cc3ccc4O)[C@H](O)c3ccc(c(Cl)c3)Oc3cc2cc(c3O[C@@H]2O[C@H](CO)[C@@H](O)[C@H](O)[C@H]2O[C@H]2C[C@](C)(N)[C@H](O)[C@H](C)O2)Oc2ccc(cc2Cl)[C@H]1O :: 2
CN[C@H](CC(C)C)C(=O)N[C@H]1C(=O)N[C@@H](CC(N)=O)C(=O)N[C@H]2C(=O)N[C@H]3C(=O)N[C@H](C(=O)N[C@H](C(=O)O)c4cc(O)cc(O)c4-c4cc3ccc4O)[C@H](O)c3ccc(c(/C=C/c4ccc(C(F)(F)F)cc4)c3)Oc3cc2cc(c3O[C@@H]2O[C@H](CO)[C@@H](O)[C@H](O)[C@H]2O[C@H]2C[C@](C)(N)[C@H](O)[C@H](C)O2)Oc2ccc(cc2Cl)[C@H]1O :: 1

Let us examine a further case.
Write down MIC measured for item C/C=C/c1cc2ccc1Oc1cc3cc(c1O[C@@H]1O[C@H](CO)[C@@H](O)[C@H](O)[C@H]1O[C@H]1C[C@](C)(N)[C@H](O)[C@H](C)O1)Oc1ccc(cc1/C=C/C)[C@@H](O)[C@@H](NC(=O)[C@@H](CC(C)C)NC)C(=O)N[C@@H](CC(N)=O)C(=O)N[C@H]3C(=O)N[C@H]1C(=O)N[C@H](C(=O)N[C@H](C(=O)O)c3cc(O)cc(O)c3-c3cc1ccc3O)[C@@H]2O
2

* * *

Test system: Staphylococcus aureus
Experiment: Antibacterial activity against methicillin-resistant vancomycin-susceptible Staphylococcus aureus SR-3637
Type: functional
Conditions: SR3637
metric: MIC
Record the result as a number with its unit.

Consider the worked cases shown below.
CN[C@H](CC(C)C)C(=O)N[C@H]1C(=O)N[C@@H](CC(N)=O)C(=O)N[C@H]2C(=O)N[C@H]3C(=O)N[C@H](C(=O)N[C@H](C(=O)O)c4cc(O)cc(O)c4-c4cc3ccc4O)[C@H](O)c3ccc(c(/C=C/c4ccccc4)c3)Oc3cc2cc(c3O[C@@H]2O[C@H](CO)[C@@H](O)[C@H](O)[C@H]2O[C@H]2C[C@](C)(N)[C@H](O)[C@H](C)O2)Oc2ccc(cc2Cl)[C@H]1O :: 2 µg/mL
CN[C@H](CC(C)C)C(=O)N[C@H]1C(=O)N[C@@H](CC(N)=O)C(=O)N[C@H]2C(=O)N[C@H]3C(=O)N[C@H](C(=O)N[C@H](C(=O)O)c4cc(O)cc(O)c4-c4cc3ccc4O)[C@H](O)c3ccc(c(-c4ccc(OC)cc4)c3)Oc3cc2cc(c3O[C@@H]2O[C@H](CO)[C@@H](O)[C@H](O)[C@H]2O[C@H]2C[C@](C)(N)[C@H](O)[C@H](C)O2)Oc2ccc(cc2Cl)[C@H]1O :: 4 µg/mL
C/C=C/c1cc2ccc1Oc1cc3cc(c1O[C@@H]1O[C@H](CO)[C@@H](O)[C@H](O)[C@H]1O[C@H]1C[C@](C)(N)[C@H](O)[C@H](C)O1)Oc1ccc(cc1/C=C/CCCCCC)[C@@H](O)[C@@H]1NC(=O)[C@H](NC(=O)[C@@H]3NC(=O)[C@H](CC(N)=O)NC(=O)[C@H](NC(=O)[C@@H](CC(C)C)NC)[C@@H]2O)c2ccc(O)c(c2)-c2c(O)cc(O)cc2[C@@H](C(=O)O)NC1=O :: 64 µg/mL

// for each molecule below, give its MIC
1. CN[C@H](CC(C)C)C(=O)N[C@H]1C(=O)N[C@@H](CC(N)=O)C(=O)N[C@H]2C(=O)N[C@H]3C(=O)N[C@H](C(=O)N[C@H](C(=O)O)c4cc(O)cc(O)c4-c4cc3ccc4O)[C@H](O)c3ccc(c(/C=C/c4ccc(-c5ccccc5)cc4)c3)Oc3cc2cc(c3O[C@@H]2O[C@H](CO)[C@@H](O)[C@H](O)[C@H]2O[C@H]2C[C@](C)(N)[C@H](O)[C@H](C)O2)Oc2ccc(cc2Cl)[C@H]1O
2. CCCCCC/C=C/c1cc2ccc1Oc1cc3cc(c1O[C@@H]1O[C@H](CO)[C@@H](O)[C@H](O)[C@H]1O[C@H]1C[C@](C)(N)[C@H](O)[C@H](C)O1)Oc1ccc(cc1Cl)[C@@H](O)[C@@H](NC(=O)[C@@H](CC(C)C)NC)C(=O)N[C@@H](CC(N)=O)C(=O)N[C@H]3C(=O)N[C@H]1C(=O)N[C@H](C(=O)N[C@H](C(=O)O)c3cc(O)cc(O)c3-c3cc1ccc3O)[C@@H]2O

1: 0.5 µg/mL; 2: 2 µg/mL

* * *

Tested on: Enterococcus faecalis
Assay: Antibacterial activity against vancomycin-susceptible Enterococcus faecalis SR1004
Type: functional
metric: MIC (µg/mL)
Answers are plain numbers, in µg/mL.

CN[C@H](CC(C)C)C(=O)N[C@H]1C(=O)N[C@@H](CC(N)=O)C(=O)N[C@H]2C(=O)N[C@H]3C(=O)N[C@H](C(=O)N[C@H](C(=O)O)c4cc(O)cc(O)c4-c4cc3ccc4O)[C@H](O)c3ccc(c(-c4ccc(OC)cc4)c3)Oc3cc2cc(c3O[C@@H]2O[C@H](CO)[C@@H](O)[C@H](O)[C@H]2O[C@H]2C[C@](C)(N)[C@H](O)[C@H](C)O2)Oc2ccc(cc2Cl)[C@H]1O :: 4

Let us examine a further case.
Quote Enterococcus faecalis MIC for entry C/C=C/c1cc2ccc1Oc1cc3cc(c1O[C@@H]1O[C@H](CO)[C@@H](O)[C@H](O)[C@H]1O[C@H]1C[C@](C)(N)[C@H](O)[C@H](C)O1)Oc1ccc(cc1/C=C/CCCCCC)[C@@H](O)[C@@H]1NC(=O)[C@H](NC(=O)[C@@H]3NC(=O)[C@H](CC(N)=O)NC(=O)[C@H](NC(=O)[C@@H](CC(C)C)NC)[C@@H]2O)c2ccc(O)c(c2)-c2c(O)cc(O)cc2[C@@H](C(=O)O)NC1=O .
32

* * *

Test system: Enterococcus faecalis
Test: Antibacterial activity against vancomycin B-resistant Enterococcus faecalis SR-23630
Assay type: functional
Details: SR23630
Assignment: determine reported MIC for the given compounds.

Consider the worked cases shown below.
CN[C@H](CC(C)C)C(=O)N[C@H]1C(=O)N[C@@H](CC(N)=O)C(=O)N[C@H]2C(=O)N[C@H]3C(=O)N[C@H](C(=O)N[C@H](C(=O)O)c4cc(O)cc(O)c4-c4cc3ccc4O)[C@H](O)c3ccc(c(-c4ccc(OC)cc4)c3)Oc3cc2cc(c3O[C@@H]2O[C@H](CO)[C@@H](O)[C@H](O)[C@H]2O[C@H]2C[C@](C)(N)[C@H](O)[C@H](C)O2)Oc2ccc(cc2Cl)[C@H]1O :: > 64 µg/mL
CN[C@H](CC(C)C)C(=O)N[C@H]1C(=O)N[C@@H](CC(N)=O)C(=O)N[C@H]2C(=O)N[C@H]3C(=O)N[C@H](C(=O)N[C@H](C(=O)O)c4cc(O)cc(O)c4-c4cc3ccc4O)[C@H](O)c3ccc(c(-c4ccccc4OC)c3)Oc3cc2cc(c3O[C@@H]2O[C@H](CO)[C@@H](O)[C@H](O)[C@H]2O[C@H]2C[C@](C)(N)[C@H](O)[C@H](C)O2)Oc2ccc(cc2Cl)[C@H]1O :: > 64 µg/mL
CCCCCC/C=C/c1cc2ccc1Oc1cc3cc(c1O[C@@H]1O[C@H](CO)[C@@H](O)[C@H](O)[C@H]1O[C@H]1C[C@](C)(N)[C@H](O)[C@H](C)O1)Oc1ccc(cc1Cl)[C@@H](O)[C@@H](NC(=O)[C@@H](CC(C)C)NC)C(=O)N[C@@H](CC(N)=O)C(=O)N[C@H]3C(=O)N[C@H]1C(=O)N[C@H](C(=O)N[C@H](C(=O)O)c3cc(O)cc(O)c3-c3cc1ccc3O)[C@@H]2O :: > 64 µg/mL

// for each compound below, give its MIC
1. C/C=C/c1cc2ccc1Oc1cc3cc(c1O[C@@H]1O[C@H](CO)[C@@H](O)[C@H](O)[C@H]1O[C@H]1C[C@](C)(N)[C@H](O)[C@H](C)O1)Oc1ccc(cc1/C=C/C)[C@@H](O)[C@@H](NC(=O)[C@@H](CC(C)C)NC)C(=O)N[C@@H](CC(N)=O)C(=O)N[C@H]3C(=O)N[C@H]1C(=O)N[C@H](C(=O)N[C@H](C(=O)O)c3cc(O)cc(O)c3-c3cc1ccc3O)[C@@H]2O
2. CN[C@H](CC(C)C)C(=O)N[C@H]1C(=O)N[C@@H](CC(N)=O)C(=O)N[C@H]2C(=O)N[C@H]3C(=O)N[C@H](C(=O)N[C@H](C(=O)O)c4cc(O)cc(O)c4-c4cc3ccc4O)[C@H](O)c3ccc(c(/C=C/c4ccc(C(F)(F)F)cc4)c3)Oc3cc2cc(c3O[C@@H]2O[C@H](CO)[C@@H](O)[C@H](O)[C@H]2O[C@H]2C[C@](C)(N)[C@H](O)[C@H](C)O2)Oc2ccc(cc2Cl)[C@H]1O

> 64 µg/mL
2 µg/mL

Write down MIC measured for item CN[C@H](CC(C)C)C(=O)N[C@H]1C(=O)N[C@@H](CC(N)=O)C(=O)N[C@H]2C(=O)N[C@H]3C(=O)N[C@H](C(=O)N[C@H](C(=O)O)c4cc(O)cc(O)c4-c4cc3ccc4O)[C@H](O)c3ccc(c(/C=C/c4ccc(-c5ccccc5)cc4)c3)Oc3cc2cc(c3O[C@@H]2O[C@H](CO)[C@@H](O)[C@H](O)[C@H]2O[C@H]2C[C@](C)(N)[C@H](O)[C@H](C)O2)Oc2ccc(cc2Cl)[C@H]1O
2 µg/mL

The measured values listed here are drawn from ChEMBL document CHEMBL1155426.
